# System: HIV-1NL4-3 V38A pseudovirus
# Assay type: cell-based
# experimentalConditions: HIV-1NL4-3 V38A; TZM-bl, 48 h; mean ± SD of three independent experiments
measuredQuantity: pIC50
pIC50 field: float, defined as -log10 of concentration (mol/L).

Query: Form: Entry = `Cc1cn([C@H]2C[C@H](N=[N+]=[N-])[C@@H](CO)O2)c(=O)[nH]c1=O` | System = HIV-1NL4-3 V38A pseudovirus | pIC50 = ____
Reply: 7.37

###

# Test system: HIV-1NL4-3 Env-pseudotyped virus
# Type: cell-based
# experimentalConditions: HIV-1NL4-3 WT pseudovirus, Table 3; TZM-bl, 48 h; mean ± SD of three independent experiments; read-out: IC50
measuredQuantity: pIC50
pIC50 field: float, defined as -log10 of concentration (mol/L).

Query: pIC50 for Cc1cn([C@H]2C[C@H](N=[N+]=[N-])[C@@H](CO)O2)c(=O)[nH]c1=O [AZT] ?
Reply: 6.97

###

# System: HIV-1NL4-3 I37T/N43K pseudovirus
# Assay type: cell-based
# experimentalConditions: HIV-1NL4-3 I37T/N43K; TZM-bl, 48 h; mean ± SD of three independent experiments
measuredQuantity: IC50 (nM)
// note: answer is a bare numeric in nM

Query: IC50 for `Cc1cn([C@H]2C[C@H](N=[N+]=[N-])[C@@H](CO)O2)c(=O)[nH]c1=O` ?
Reply: 139

###

# Tested on: HIV-1NL4-3 N43K pseudovirus
# Format: cell-based
# experimentalConditions: HIV-1NL4-3 N43K; TZM-bl, 48 h; mean ± SD of three independent experiments
measuredQuantity: IC50 (µM)
// note: answer is a bare numeric in µM

Query: IC50 for `Cc1cn([C@H]2C[C@H](N=[N+]=[N-])[C@@H](CO)O2)c(=O)[nH]c1=O` ?
Reply: 0.153

###

# System: HIV-1NL4-3 V38M pseudovirus
# Format: cell-based
# experimentalConditions: HIV-1NL4-3 V38M; TZM-bl, 48 h; mean ± SD of three independent experiments
measuredQuantity: IC50 (nM)
// note: answer is a bare numeric in nM

Query: IC50 for `Cc1cn([C@H]2C[C@H](N=[N+]=[N-])[C@@H](CO)O2)c(=O)[nH]c1=O` ?
Reply: 47.8

Data provenance: paper PMC3293837
